Source listed as the supplement of paper PMC7877785.

Test: self-splicing fitness, log relative to wild type (ln ratio); higher = more splicing; Tetrahymena group I intron in knt gene, E. coli kanamycin selection, DiMSum; sequences stand for … in CUCUCU…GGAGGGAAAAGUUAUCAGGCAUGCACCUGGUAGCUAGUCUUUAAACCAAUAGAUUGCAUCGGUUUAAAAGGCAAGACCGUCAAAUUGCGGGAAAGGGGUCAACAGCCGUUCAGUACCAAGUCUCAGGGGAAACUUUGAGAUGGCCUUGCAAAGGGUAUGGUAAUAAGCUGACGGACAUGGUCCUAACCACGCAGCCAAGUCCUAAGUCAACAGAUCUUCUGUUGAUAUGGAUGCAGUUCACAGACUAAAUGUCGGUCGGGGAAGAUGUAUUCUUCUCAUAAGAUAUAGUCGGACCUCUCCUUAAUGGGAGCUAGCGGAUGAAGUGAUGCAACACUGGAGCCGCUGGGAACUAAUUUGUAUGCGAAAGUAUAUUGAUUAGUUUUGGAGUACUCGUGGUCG;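 also: selection with 25 µg/mL kanamycin versus none on LB agar overnight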
Details: 30 °C
Assign class by self-splicing fitness (ln): not lower than -3 means y; lower than -3 means n.

>>> print(df.to_string())
             seq_string  category_label
0  GAACAGCAAUAUUACGAAAA               y

Could you verify whether the entry UGUGAGCAAUAUUACGAGUC shows self-splicing fitness (ln) of no less than -3? y

Could you verify whether the entry UCUCAGCAAUAUUACGACUG shows self-splicing fitness (ln) of no less than -3? y

----------
Assay: self-splicing fitness, log relative to wild type (ln ratio); higher = more splicing; Tetrahymena group I intron in knt gene, E. coli kanamycin selection, DiMSum; sequences stand for … in CUCUCU…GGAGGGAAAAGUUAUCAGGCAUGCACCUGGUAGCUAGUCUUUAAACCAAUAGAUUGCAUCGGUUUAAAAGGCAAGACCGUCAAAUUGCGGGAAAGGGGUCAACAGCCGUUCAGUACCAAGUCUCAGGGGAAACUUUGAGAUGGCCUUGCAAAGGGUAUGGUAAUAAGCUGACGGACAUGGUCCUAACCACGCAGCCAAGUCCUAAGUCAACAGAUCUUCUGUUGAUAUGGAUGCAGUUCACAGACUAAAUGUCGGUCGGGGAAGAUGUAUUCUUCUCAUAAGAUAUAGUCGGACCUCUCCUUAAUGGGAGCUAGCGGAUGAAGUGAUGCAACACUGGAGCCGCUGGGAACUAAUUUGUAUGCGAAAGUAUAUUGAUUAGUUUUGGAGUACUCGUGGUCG
Details: 37 °C
metric: self-splicing fitness (ln)
// keep it numeric: no unit symbol after the value

The examples below pair each entry with its known result.
             seq_string  assay_value
0  ACCCAGCAAUAUUACGCCCU        0.262
1  AGGAAGCAAUAUUACGGUAG         -1.6
2  GCUCAGCAAUAUUACGGACC       -0.186
3  GGUGAGCAAUAUUACGGGGC        -1.01
4  UCGUAGCAAUAUUACGUUAG         -2.1

Any idea what self-splicing fitness (ln) was measured for UGGGAGCAAUAUUACGAGAG ? -2.85

Any idea what self-splicing fitness (ln) was measured for GGUCAGCAAUAUUACGUCAC ? -1.77

Any idea what self-splicing fitness (ln) was measured for GAUUAGCAAUAUUACGUGCC ? -0.667

Any idea what self-splicing fitness (ln) was measured for ACAGAGCAAUAUUACGAGAG ? -2.6

Any idea what self-splicing fitness (ln) was measured for AGGAAGCAAUAUUACGGACA ? -0.384

Any idea what self-splicing fitness (ln) was measured for GUGGAGCAAUAUUACGGGAG ? -1.8

Any idea what self-splicing fitness (ln) was measured for GUUGAGCAAUAUUACGAGUU ? -2.56

Any idea what self-splicing fitness (ln) was measured for CGUUAGCAAUAUUACGCCUC ? -2.48
